- SUBJECT_OF_TEST: UniProt:P51449
- ASSAY_PROCEDURE: RORγ Gal4 Reporter Gene Assay in 293T cells (firefly and renilla luciferase)
- Format: cell-based, human
- DETAILS: second value of the cell; Gal4 reporter gene assay in 293T cells, firefly luciferase
ENDPOINT: pIC50 (FF)

INSERT INTO measurements (smi, value) VALUES
  ('CCNC(=O)NC(C)(C)CNC(=O)c1cc(-c2cc(C(C)(C)C)c3c(c2)C2(CCO3)CC2)n(CC2CCCCC2)c1C', 6.1),
  ('COC1(c2cc(-c3cc(C(=O)NC4CCOCC4)c(C)n3CC3CCCCC3)ccc2S(=O)(=O)NC(C)(C)C)CC1', 6.4),
  ('Cc1c(C(=O)NC2COC2)cc(-c2cc(C3(C)CC3)c3c(c2)C2(CCO3)CC2)n1CC1CCCCC1', 7.5),
  ('Cc1c(C(=O)NC2CCOCC2)cc(-c2ccc(CC(=O)NC(C)(C)C)c(C(F)(F)F)c2)n1CC1CCCCC1', 6.8);

====

Each entry below carries its reported pIC50.
- SUBJECT_OF_TEST: RORγ ligand binding domain (LBD) (Homo sapiens)
- Construct: made in house; host or cells: E. coli BL-21 (BL3), vector pDEST15
- Sequence (P51449 269-508 limits assumed): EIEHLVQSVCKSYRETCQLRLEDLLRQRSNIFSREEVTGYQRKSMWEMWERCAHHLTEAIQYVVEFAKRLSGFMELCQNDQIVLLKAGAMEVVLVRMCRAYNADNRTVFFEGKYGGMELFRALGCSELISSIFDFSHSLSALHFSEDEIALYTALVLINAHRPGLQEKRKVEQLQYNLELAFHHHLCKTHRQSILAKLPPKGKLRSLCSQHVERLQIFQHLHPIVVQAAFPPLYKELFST
- ASSAY_PROCEDURE: TR-FRET Activity Assay (ligand sensing, RORγ-LBD / coactivator peptide interaction, LANCE)
- Format: biochemical
Scale for pIC50: -log10 of concentration given in mol/L; no unit attached.

INSERT INTO results (compound, value) VALUES
  ('Cc1c(C(=O)NC2COC2)cc(-c2cc(C(=O)N(C)C(C)(C)C)cc(C(F)(F)F)c2)n1CC1CCCCC1 [15/1]', 5.70),
  ('Cc1c(C(=O)NC2COC2)cc(-c2cc(OCC(C)(C)C)nc(C(C)(C)C)c2)n1CC1CCCCC1 [1/120]', 6.90),
  ('Cc1c(C(=O)NCCO)cc(-c2cc(C(C)(C)C)cc(C(C)(C)C)c2)n1CC1CCCCC1 [1/54]', 6.40);

// below: pIC50 requested for another compound
Hello, I am looking for reported pIC50 with RORγ ligand binding domain (LBD) (Homo sapiens) for Cc1c(C(=O)NC2CCOCC2)cc(-c2ccc(S(=O)(=O)NC(C)(C)C)c3cnccc23)n1CC1CCCCC1 [17/369] . Could you help?
5.90

====

- SUBJECT_OF_TEST: RORγ (UniProt P51449)
- ASSAY_PROCEDURE: RORγ Gal4 Reporter Gene Assay in 293T cells (firefly and renilla luciferase)
- Assay type: cell-based, human
- DETAILS: second value of the cell; Gal4 reporter gene assay in 293T cells, firefly luciferase
ENDPOINT: pIC50 (FF)

INSERT INTO results (molecule, value) VALUES
  ('Cc1c(C(=O)NCC2(C(N)=O)CCOCC2)cc(-c2cc(C(C)(C)C)cc(C3(C)CC3)c2)n1CC1CCCCC1 [17/62]', 8.3),
  ('CC(C)(C)NS(=O)(=O)c1ccc(-c2cc(C(=O)NC3CCOCC3)c(F)n2CC2CCCCC2)cc1C(C)(C)C [Example 20]', 7.4),
  ('Cc1c(C(=O)NC2CCOCC2)cc(-c2ccc(S(=O)(=O)NC(C)(C)C)c(C(F)(F)F)c2Cl)n1CC1CCCCC1 [17/288]', 7.3),
  ('Cc1c(C(=O)NCCCCCC(=O)O)cc(-c2cc(C(C)(C)C)cc(C(C)(C)C)c2)n1CC1CCCCC1 [1/72]', 7.1),
  ('Cc1c(C(=O)N[C@H]2CC[C@@H](C(=O)O)CC2)cc(-c2cc(C(C)(C)C)c3c(c2)C2(CCO3)CC2)n1CC1CCCCC1 [17/58]', 6.7),
  ('Cc1c(C(=O)NCCC(C)(C)C(=O)O)cc(-c2ccc(S(=O)(=O)NC(C)(C)C)c(OC(F)F)c2)n1CC1CCCCC1 [17/167]', 6.6),
  ('Cc1c(C(=O)N[C@H]2C[C@H](C(=O)O)C2)cc(-c2cc(C(=O)NC(C)(C)C(F)(F)F)cc(C3(C)CC3)c2)n1CC1CCCCC1 [17/360]', 7.3),
  ('Cc1c(C(=O)NCCC(C)(C)C(N)=O)cc(-c2ccc(S(=O)(=O)NC(C)(C)C)c(C(F)(F)F)c2)n1CC1CCCCC1 [17/135]', 6.7),
  ('Cc1c(C(=O)NC2CCOCC2)cc(C2=NN(S(=O)(=O)c3ccccc3)C3(CCCCC3)C2)n1CC1CCCCC1 [24/1]', 6.3),
  ('Cc1c(C(=O)NCc2nnn[nH]2)cc(-c2cc(C(C)(C)C)cc(C3(C)CC3)c2)n1CC1CCCCC1 [17/71]', 6.9),
  ('Cc1c(C(=O)N[C@H]2C[C@H](C(=O)O)C2)cc(-c2ccc(S(=O)(=O)NC3(C#N)CC3)c(C(F)(F)F)c2)n1CC1CCCCC1 [17/362]', 5.9),
  ('Cc1c(C(=O)NC2CCOCC2)cc(-c2ccc(S(=O)(=O)NC(C)(C)C)c(C(F)(F)F)c2)n1CC1CCC(F)(F)CC1 [17/256]', 6.8);

====

- SUBJECT_OF_TEST: RORγ ligand binding domain (LBD) (Homo sapiens, UniProt P51449)
- Construct: made in house; host or cells: E. coli BL-21 (BL3), vector pDEST15
- Sequence (P51449 269-508 limits assumed): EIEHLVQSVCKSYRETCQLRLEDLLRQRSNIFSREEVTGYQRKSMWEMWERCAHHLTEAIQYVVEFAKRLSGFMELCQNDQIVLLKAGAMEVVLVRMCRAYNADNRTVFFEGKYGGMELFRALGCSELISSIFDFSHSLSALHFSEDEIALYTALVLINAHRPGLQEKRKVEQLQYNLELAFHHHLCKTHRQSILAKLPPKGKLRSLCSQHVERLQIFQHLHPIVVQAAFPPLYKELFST
- ASSAY_PROCEDURE: TR-FRET Activity Assay (ligand sensing, RORγ-LBD / coactivator peptide interaction, LANCE)
- Assay type: biochemical
- DETAILS: first value of the cell FRET/FF/REN; TR-FRET activity assay; read-out: pIC50 (FRET) (converted)
ENDPOINT: IC50 (nM)

Look over these answered cases.
INSERT INTO measurements (compound, endpoint, value) VALUES
  ('Cc1c(C(=O)NC2CCOCC2)cc(-c2cc(Cl)cc(C(=O)NC(C)(C)C)c2)n1CC1CCCCC1', 'IC50', 501),
  ('COC(C)(C)c1cc(-c2cc(C(=O)NC3CCOCC3)c(C)n2CC2CCCCC2)cc(C(C)NC(C)C)c1 (stereo not shown)', 'IC50', 3980),
  ('Cc1c(C(=O)NC2CCOCC2)cc(-c2ccc(S(=O)(=O)NC(C)(C)C)c(OC(F)(F)F)c2)n1CC1CCCCC1', 'IC50', 158),
  ('Cc1c(C(=O)NCC2(C(N)=O)CCOCC2)cc(-c2ccc(S(=O)(=O)NC(C)(C)C)c3ccccc23)n1CC1CCCCC1', 'IC50', 794);

1: CCC(C)(C)NS(=O)(=O)c1ccc(-c2cc(C(=O)NC3CCOCC3)c(C)n2CC2CCCCC2)cc1C(F)(F)F
2: Cc1c(C(=O)NC2CCOCC2)cc(-c2ccc(S(=O)(=O)NC(C)(C)C)c3c2CCCC3)n1CC1CCCCC1
3: Cc1c(C(=O)NCc2nnn[nH]2)cc(-c2cc(C(C)(C)C)cc(C3(C)CC3)c2)n1CC1CCCCC1
Ranking field: IC50; order: falling. Reply with the labels, ordered as the question asks.
3, 2, 1

====

- SUBJECT_OF_TEST: RORγ ligand binding domain (LBD) (Homo sapiens, UniProt P51449)
- Construct: made in house; host or cells: E. coli BL-21 (BL3), vector pDEST15
- ASSAY_PROCEDURE: TR-FRET Activity Assay (ligand sensing, RORγ-LBD / coactivator peptide interaction, LANCE)
- Format: biochemical
ENDPOINT: IC50 (nM)
Express the result in nM but write the number alone.

INSERT INTO assay_data (molecule, unit_info, value) VALUES
  ('Cc1c(C(=O)NN2CCOCC2)cc(-c2cc(C(C)(C)C)c3c(c2)C2(CCO3)CC2)n1CC1CCCCC1', 'nM', 631),
  ('Cc1c(C(=O)NC2CCOCC2)cc(-c2cc(C(=O)NC(C)(C)C)cc(C(=O)NC(C)(C)C)c2)n1CC1CCCCC1', 'nM', 6310),
  ('Cc1c(C(=O)NC2COC2)cc(-c2cc(C(C)(C)C)cc(C(C)(C)C)c2)n1S(=O)(=O)N1CCCC(C)C1 (stereo not shown)', 'nM', 251),
  ('Cc1c(C(=O)NCC(C)(C)O)cc(-c2cc(C(C)(C)C)cc(C(C)(C)C)c2OC(F)F)n1CC1CCCCC1', 'nM', 1260),
  ('Cc1c(C(=O)NC2CCOCC2)cc(-c2ccc(S(=O)(=O)NC(C)(C)C)c(OCC(C)(C)C)c2)n1CC1CCCCC1', 'nM', 5010);

GET /values?readout=IC50&item= Cc1c(C(=O)NC2CCOCC2)cc(-c2ccc(S(=O)(=O)N3CCCC(C(F)(F)F)C3)c(C(C)(C)C)c2)n1CC1CCCCC1 (stereo not shown)
251

Item Cc1c(C(=O)NC2CS(=O)(=O)C2)cc(-c2ccc(S(=O)(=O)NC(C)(C)C)c(C(C)(C)C)c2)n1CC1CCCCC1 has what recorded IC50?
631
